Where these numbers come from: PubChem BioAssay (NCI)

Tested on: 786-0 renal
Experiment: NCI-60 one-dose screen, 48 h (100 = growth as untreated, 0 = no growth, -100 = all killed)
Conditions: 10 µM unless noted
Compounds without any hit were thinned out: in the full panel of roughly 83,000, 20% have a hit.

molecule | study target | growth [%]
Cc1nc(-c2ccccc2)cc2c(O)c(C(=O)NN)[nH]c(=O)c12 | 786-0 renal | 108
O=C(Cn1c(=O)sc2ccccc21)NNS(=O)(=O)c1ccccc1[N+](=O)[O-] | 786-0 renal | 104
CC1(C)CCC(S(=O)(=O)c2ccc3c(c2)/C(=N\O)c2cc(S(=O)(=O)N4CCC(O)(c5cccc(C(F)(F)F)c5)CC4)ccc2-3)CC1 | 786-0 renal | -87.3
Cn1c(=O)c2c(nc(NC3=NS(=O)(=O)c4ccccc43)n2CC(=O)N2CCc3ccccc32)n(C)c1=O | 786-0 renal | 97.3
COc1cc(-c2cc(-c3cccs3)c(C#N)c(N3CCOCC3)n2)cc(OC)c1OC | 786-0 renal | 37.7
C=C1CC[C@@H]2[C@](C)(COC(C)=O)[C@H](OC(C)=O)CC[C@@]2(C)[C@@H]1CC(Sc1ccccc1)C1=CCOC1=O (stereo partly specified) | 786-0 renal | -31.2
